Assay: Long term storage stability studies: HPLC, solutions stored at RT and 4° C. for up to 4 months
Settings: greatest percentage change over the 4 month testing period; † non-significant, * significant, ‡ transient at 2 weeks
Readout label: Vitamin degradation, Storage RT

// query Dear colleague, I am looking for the recorded Vitamin degradation, Storage RT of the following molecule: `O=C(O)CCCC[C@@H]1SC[C@@H]2NC(=O)N[C@@H]21`
// result −15.9% ‡
